Measured pIC50 of individual entries
- TARGET OF ASSAY: NLRP3 (Homo sapiens, UniProt Q96P20)
- Sequence (Q96P20 whole entry): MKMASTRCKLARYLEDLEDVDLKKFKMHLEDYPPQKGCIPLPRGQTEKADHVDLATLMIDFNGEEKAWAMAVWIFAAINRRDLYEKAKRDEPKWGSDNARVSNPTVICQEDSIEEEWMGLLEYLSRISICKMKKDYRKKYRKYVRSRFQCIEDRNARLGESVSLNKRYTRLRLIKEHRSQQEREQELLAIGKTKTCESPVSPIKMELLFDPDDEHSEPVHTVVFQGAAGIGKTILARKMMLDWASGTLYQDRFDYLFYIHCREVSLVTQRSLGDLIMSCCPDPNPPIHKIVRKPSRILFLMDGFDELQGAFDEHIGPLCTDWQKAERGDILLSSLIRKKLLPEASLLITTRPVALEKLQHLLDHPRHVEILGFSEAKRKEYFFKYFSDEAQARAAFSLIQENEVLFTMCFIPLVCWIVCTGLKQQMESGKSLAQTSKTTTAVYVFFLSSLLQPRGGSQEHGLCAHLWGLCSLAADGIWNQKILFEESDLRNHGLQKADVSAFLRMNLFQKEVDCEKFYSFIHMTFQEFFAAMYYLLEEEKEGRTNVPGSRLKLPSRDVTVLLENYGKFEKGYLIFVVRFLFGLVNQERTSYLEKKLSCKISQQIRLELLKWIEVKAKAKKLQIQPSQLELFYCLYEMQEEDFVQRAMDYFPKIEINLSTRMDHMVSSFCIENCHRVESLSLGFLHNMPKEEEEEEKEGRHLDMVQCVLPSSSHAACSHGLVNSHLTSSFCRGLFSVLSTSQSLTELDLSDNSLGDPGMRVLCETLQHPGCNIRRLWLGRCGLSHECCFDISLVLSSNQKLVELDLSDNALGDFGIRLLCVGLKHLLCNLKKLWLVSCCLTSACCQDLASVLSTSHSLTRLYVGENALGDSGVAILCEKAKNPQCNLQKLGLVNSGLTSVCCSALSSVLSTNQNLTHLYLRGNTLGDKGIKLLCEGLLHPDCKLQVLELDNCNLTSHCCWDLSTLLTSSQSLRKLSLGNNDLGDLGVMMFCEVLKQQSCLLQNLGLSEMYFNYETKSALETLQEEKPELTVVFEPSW
- ASSAY NOTES: Human whole blood IL-1β release assay
- Format: cell-based
- Design: Plate out 80 μl of whole blood containing 1 μg/ml of LPS in 96-well, clear bottom cell culture plate; from tissue; host or cells: human whole blood from healthy donors
- CONDITION SET: LPS 1 μg/ml, compound 3 hrs, nigericin 10 μM 1 hr, IL-1β by AlphaLisa, read-out: HWB IC50
pIC50: −log10 of the molar value. Structures can show the parent of a compound that is named as a salt.

COMPOUND	pIC50
CC1(C)COc2cc(ccn2)-c2c(F)cc3c(c2NC(=O)NS(=O)(=O)c2nn1cc2F)CCC3 [Example 41, sodium salt]	6.30 to 7.00
CC1(C)COc2cc(ccn2)-c2c(F)cc3c(c2NC(=O)NS(=O)(=O)c2ccn1n2)CCC3	6.30 to 7.00
Cc1cc2cc(n1)OCC(C)(C)n1ccc(n1)S(=O)(=O)NC(=O)Nc1c-2ccc2c1CCC2	6.00 to 6.30

// next item, pIC50 requested
Query: Item under review: CN1CCOc2cc(ccn2)-c2ccc3c(c2NC(=O)NS(=O)(=O)c2ccn(n2)C(C)(C)C1=O)CCC3 . Reported pIC50?
Result: 6.00 to 6.30

Each recorded value in this set is attributed to patent US20220289766A1.
